z-score values for the compounds below.
assayProtocol: basal RPMI8226 viability, no added stimulus, profiling panel, cell-based, calcein-AM fluorescence, 48 h, PK04 Diversity Set (AID 1166);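 further: cells grown under basal conditions without added stimulus; test concentration not given here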
assayConditions: RPMI8226 myeloma viability, higher = more signal
Enter the number alone.

Answered examples (5):
C[N+](C)(C)CCCC[C@@H]1NC(=O)[C@H]2C[C@@H](C(=O)O)[C@@H](c3ccc(O)cc3)N2C1=O | 0.442
COCCCNC(=O)[C@]1(Cc2ccccc2N=[N+]=[N-])N=C(c2ccc(OCCCO)cc2)O[C@@H]1c1ccccc1 | -3.9
C=C(C(=O)CC[C@@H](OC(=O)c1ccccc1-c1ccccc1C(=O)O)c1ccc(CO)o1)C(C)C | -0.951
COC(=O)C1(CC(C)C)C=C2C(=C(C)C(=O)C2C)CN1 (stereo unspecified) | -1.77
C=CC[C@H](O)c1ccc(O)c2ccccc12 | -3.71

Ask | Given the compound CCOC(=O)C1=CCC(c2cccn2C(=O)OC(C)(C)C)N(S(=O)(=O)c2ccc(C)cc2)C1 (stereo unspecified) , write its reported z-score.
Reply | -3.67

Ask | Provide one value: measured z-score of COC(=O)Cn1c(C(=O)N(C)C)cc2c1C[C@H]1CN(C(=O)c3ccccc3)[C@@](Cc3ccccc3)(C(=O)OC)[C@@H]21
Reply | -0.512

Ask | Tell me z-score reported for CC(C)(C)OC(=O)CC[C@]1(C(N)=O)N=C(c2ccc(OCCCO)cc2)O[C@H]1c1ccccc1N=[N+]=[N-]
Reply | 0.882

Ask | Determine from records and report z-score for O=C1O[C@H](c2ccccc2)[C@H](c2ccccc2)N2[C@H]1[C@@H](C(=O)Nc1nc3ccccc3s1)[C@]1(C(=O)Nc3ccccc31)[C@H]2c1ccccc1OCCO
Reply | -3.67

Ask | Consider the compound COC(=O)[C@@]1(Cc2ccccc2)[C@H]2c3cc(C(=O)N(C)C)n(CCF)c3C[C@H]2CN1C(=O)c1ccccc1 . State its measured z-score.
Reply | -0.57

Ask | Item COC(=O)C(CC#Cc1ccc2c(c1)[C@]1(C(=O)N2)[C@H](C(=O)N2CCN(c3ncccn3)CC2)[C@H]2C(=O)O[C@H](c3ccccc3)[C@H](c3ccccc3)N2[C@@H]1c1ccc(O)cc1)C(=O)OC : provide z-score
Reply | -2.03

Ask | # return recorded z-score for input COC(=O)[C@H]1N=C(c2ccc(OCCCO)cc2)O[C@H]1c1ccccc1N=[N+]=[N-]
Reply | -1.44
